Some compounds, each annotated with its measured G.P.I. α^E.
Target: B2 receptor (Cavia porcellus, UniProt O70526)
Sequence (O70526 whole entry): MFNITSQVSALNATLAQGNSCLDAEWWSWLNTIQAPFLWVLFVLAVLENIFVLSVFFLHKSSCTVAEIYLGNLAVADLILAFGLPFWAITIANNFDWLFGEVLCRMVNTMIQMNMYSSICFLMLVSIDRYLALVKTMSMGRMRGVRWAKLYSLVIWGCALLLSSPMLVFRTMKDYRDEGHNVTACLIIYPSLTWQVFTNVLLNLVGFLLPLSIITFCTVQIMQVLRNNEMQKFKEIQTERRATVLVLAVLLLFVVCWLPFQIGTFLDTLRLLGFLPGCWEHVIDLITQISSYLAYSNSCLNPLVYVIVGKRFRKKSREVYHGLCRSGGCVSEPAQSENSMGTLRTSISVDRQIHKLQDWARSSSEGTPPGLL
Test: cell-based
Conditions: residual agonistic activity at 10 μg/mL in comparison with BK
Non-standard residues stand in square brackets, D forms with d. Residues, ends and D or L forms follow the SMILES beside them. d2Nal = N[C@H](Cc1ccc2ccccc2c1)C(=O)O
observationType: G.P.I. α^E

[[record]]
compound = "CC(=O)N[C@@H](CCCCN)C(=O)N[C@@H](CCCNC(=N)N)C(=O)N1CCC[C@H]1C(=O)N1CCC[C@H]1C(=O)NCC(=O)N[C@@H](Cc1ccccc1)C(=O)N[C@@H](CO)C(=O)N[C@H](Cc1ccc2ccccc2c1)C(=O)N[C@@H](CC(C)C)C(=O)O [Compound 18, AcLys(D-βNal^7, Leu^8)desArg^9BK] (Ac-KRPPGFS[d2Nal]L-OH; C-terminus assumed)"
observed = 0

[[record]]
compound = "CC(=O)N[C@@H](Cc1ccc(O)cc1)C(=O)NCCCCCC(=O)N[C@@H](CCCCN)C(=O)N[C@@H](CCCNC(=N)N)C(=O)N1CCC[C@H]1C(=O)N1CCC[C@H]1C(=O)NCC(=O)N[C@@H](Cc1ccccc1)C(=O)N[C@@H](CO)C(=O)N1CCC[C@H]1C(=O)N[C@@H](CC(C)C)C(=O)O"
observed = 0.30


----------
Biological target: B2 receptor (Oryctolagus cuniculus, UniProt Q28642)
Sequence (Q28642 whole entry): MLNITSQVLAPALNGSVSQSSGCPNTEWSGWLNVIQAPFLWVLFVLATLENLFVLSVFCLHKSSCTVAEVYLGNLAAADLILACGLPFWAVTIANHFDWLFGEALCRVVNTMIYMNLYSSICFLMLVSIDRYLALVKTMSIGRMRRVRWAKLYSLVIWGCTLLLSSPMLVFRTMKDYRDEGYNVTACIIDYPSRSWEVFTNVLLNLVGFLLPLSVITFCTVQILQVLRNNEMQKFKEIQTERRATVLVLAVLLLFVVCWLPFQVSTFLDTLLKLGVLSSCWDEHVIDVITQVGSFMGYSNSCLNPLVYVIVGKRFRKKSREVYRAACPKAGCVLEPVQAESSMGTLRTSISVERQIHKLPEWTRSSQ
Assay: cell-based
Non-standard residues stand in square brackets, D forms with d. Residues, ends and D or L forms follow the SMILES beside them. d2Nal = N[C@H](Cc1ccc2ccccc2c1)C(=O)O; Hyp = O=C(O)[C@@H]1C[C@@H](O)CN1
observationType: Kb (nM)

[[record]]
compound = "CC(=O)N[C@@H](CCCCN)C(=O)N[C@@H](CCCNC(=N)N)C(=O)N1CCC[C@H]1C(=O)N1CCC[C@H]1C(=O)NCC(=O)N[C@@H](Cc1ccccc1)C(=O)N[C@@H](CO)C(=O)N[C@H](Cc1ccc2ccccc2c1)C(=O)N[C@@H](CC(C)C)C(=O)O [Compound 18, AcLys(D-βNal^7, Leu^8)desArg^9BK] (Ac-KRPPGFS[d2Nal]L-OH; C-terminus assumed)"
comparisonsign = ">"
observed = 8710

[[record]]
compound = "CC(C)C[C@H](NC(=O)[C@@H](Cc1ccccc1)NC(=O)[C@H](CO)NC(=O)[C@H](Cc1ccccc1)NC(=O)CNC(=O)[C@@H]1C[C@@H](O)CN1C(=O)[C@@H]1CCCN1C(=O)[C@H](CCCNC(=N)N)NC(=O)[C@H](N)CCCNC(=N)N)C(=O)O [Compound 7, D-Arg(Hyp^3, D-Phe^7, Leu^8)desArg^9BK] (H-[dR]RP[Hyp]GFS[dF]L-OH; N-terminus and C-terminus assumed)"
comparisonsign = "="
observed = 2090


----------
Some compounds, each annotated with its measured G.P.I. α^E.
Biological target: B2 receptor (Cavia porcellus, UniProt O70526)
Test: cell-based
Conditions: residual agonistic activity at 10 μg/mL in comparison with BK
Non-standard residues stand in square brackets, D forms with d. Residues, ends and D or L forms follow the SMILES beside them. 2Nal = N[C@@H](Cc1ccc2ccccc2c1)C(=O)O; NMeA = CN[C@@H](C)C(=O)O
observationType: G.P.I. α^E

[[record]]
compound = "CC(=O)N[C@@H](CCCCN)C(=O)N[C@@H](CCCNC(=N)N)C(=O)N1CCC[C@H]1C(=O)N1C[C@H](O)C[C@H]1C(=O)NCC(=O)N[C@@H](Cc1ccccc1)C(=O)N[C@@H](CO)C(=O)N1CCC[C@H]1C(=O)N[C@@H](CC(C)C)C(=O)O [Compound 5, AcLys(Hyp^3, Leu^8)desArg^9BK]"
systemname = "B2 receptor (Cavia porcellus, UniProt O70526)"
observationtype = "G.P.I. α^E"
observed = 0.30

[[record]]
compound = "CC(=O)N[C@@H](CCCCN)C(=O)N[C@@H](CCCNC(=N)N)C(=O)N1CCC[C@H]1C(=O)N1CCC[C@H]1C(=O)NCC(=O)N[C@@H](Cc1ccccc1)C(=O)N(C)[C@@H](C)C(=O)N1CCC[C@H]1C(=O)N[C@@H](CC(C)C)C(=O)O [Compound 21, AcLys(N-MeAla^6, Leu^8)desArg^9BK, reference compound] (Ac-KRPPGF[NMeA]PL-OH; C-terminus assumed)"
systemname = "B2 receptor (Cavia porcellus, UniProt O70526)"
observationtype = "G.P.I. α^E"
observed = 0.19

[[record]]
compound = "CC[C@H](C)[C@H](NC(=O)[C@H](Cc1ccc2ccccc2c1)NC(=O)[C@H](CO)NC(=O)[C@H](Cc1ccccc1)NC(=O)CNC(=O)[C@@H]1CCCN1C(=O)[C@@H]1CCCN1C(=O)[C@H](CCCNC(=N)N)NC(=O)[C@H](CCCCN)NC(C)=O)C(=O)O [Compound 20, AcLys(L-βNal^7, Ile^8)desArg^9BK] (Ac-KRPPGFS[2Nal]I-OH; C-terminus assumed)"
systemname = "B2 receptor (Cavia porcellus, UniProt O70526)"
observationtype = "G.P.I. α^E"
observed = 0.06

